Molecular target: human PRMT6 (Homo sapiens, UniProt Q96LA8)
Construct: Flag-PRMT6-His; made in house; host or cells: HEK 293F cells (BacMam baculovirus)
Sequence (Q96LA8 with tags, fused parts or gaps): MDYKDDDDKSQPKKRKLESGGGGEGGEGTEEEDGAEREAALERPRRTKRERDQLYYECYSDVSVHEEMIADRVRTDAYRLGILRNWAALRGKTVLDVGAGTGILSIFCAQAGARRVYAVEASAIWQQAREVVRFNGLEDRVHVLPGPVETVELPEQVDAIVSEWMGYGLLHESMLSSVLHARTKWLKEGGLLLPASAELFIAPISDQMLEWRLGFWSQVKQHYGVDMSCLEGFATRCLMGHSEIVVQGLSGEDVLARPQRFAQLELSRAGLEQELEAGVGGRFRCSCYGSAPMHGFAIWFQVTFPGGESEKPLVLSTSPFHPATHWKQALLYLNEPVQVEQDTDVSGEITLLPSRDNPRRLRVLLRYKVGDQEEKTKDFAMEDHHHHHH
Assay: PRMT6 Biochemical Assay (3H-SAM Flashplate, peptide substrate)
Conditions: Biochemical IC50 PRMT6
pIC50: −log10 of the molar value.
MEASURED METRIC: pIC50

The examples below pair each entry with its known result.
# COMPOUND, pIC50
data = [
    ("CCC(CC)Oc1ccc(-c2n[nH]cc2CN(C)CCNC)cc1 [Compound 290]", "> 7.00"),
    ("CNCCN(C)Cc1c[nH]nc1-c1ccc(OC(COC)C(C)C)cc1 (centres unmarked) [Compound 311]", "> 7.00"),
    ("CNCCN(C)Cc1c[nH]nc1-c1ccc(OC2COC2)cc1 [Compound 283]", "> 7.00"),
    ("CCOc1ccc(-c2n[nH]cc2CN(C)CCNC)cc1 [Compound 294]", "> 7.00"),
    ("CNCCN(C)Cc1c[nH]nc1-c1ccc(OCC2CC2)c(F)c1 [Compound 298]", "> 7.00"),
    ("CC[C@@H](C)Oc1ccc(-c2n[nH]cc2CN(C)CCNC)cc1 [Compound 308]", "> 7.00"),
]

stdin: Which pIC50 value is on record for CNCCN(C)Cc1c[nH]nc1-c1ccc(OC2CCOCC2)c(Cl)c1 [Compound 292] ?
stdout: > 7.00

###

Molecular target: Human CARM1 (PRMT4) (Homo sapiens, UniProt Q86X55)
Construct: Flag-CARM1-His; made in house; host or cells: HEK 293F cells (BacMam baculovirus)
Sequence (Q86X55 1-585 isoform Q86X55-1): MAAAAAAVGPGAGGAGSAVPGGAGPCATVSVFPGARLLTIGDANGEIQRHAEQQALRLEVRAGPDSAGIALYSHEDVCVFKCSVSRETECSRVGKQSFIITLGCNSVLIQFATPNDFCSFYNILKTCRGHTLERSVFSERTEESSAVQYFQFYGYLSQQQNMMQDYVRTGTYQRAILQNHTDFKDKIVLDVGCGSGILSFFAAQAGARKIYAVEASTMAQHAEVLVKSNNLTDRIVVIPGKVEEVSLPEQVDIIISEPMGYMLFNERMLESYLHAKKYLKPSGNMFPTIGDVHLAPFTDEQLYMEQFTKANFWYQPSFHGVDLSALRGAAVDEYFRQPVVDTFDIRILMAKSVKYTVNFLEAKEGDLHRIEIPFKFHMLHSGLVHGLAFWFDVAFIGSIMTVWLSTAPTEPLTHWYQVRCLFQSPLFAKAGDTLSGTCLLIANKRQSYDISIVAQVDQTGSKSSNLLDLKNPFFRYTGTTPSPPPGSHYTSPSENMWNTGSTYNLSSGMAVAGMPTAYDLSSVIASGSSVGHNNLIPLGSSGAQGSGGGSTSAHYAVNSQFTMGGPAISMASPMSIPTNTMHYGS
Assay: CARM1 Biochemical Assay (3H-SAM Flashplate, peptide substrate)
Conditions: single experiment or average of multiple experiments
pIC50: −log10 of the molar value.
MEASURED METRIC: pIC50

# COMPOUND, pIC50
measured = [
    ("CNCCN(C)Cc1c[nH]nc1-c1cccc([N+](=O)[O-])c1", 5.68),
    ("CNCCN(C)Cc1cn(C2CCOC2)nc1-c1ccc(OC(C)C)cc1 (centres unmarked)", 6.52),
]

I: COc1cccc(-c2n[nH]cc2CN(C)CCN)c1
II: CNCCN(C)Cc1cn(C2CCCCC2)nc1-c1ccc(OC(C)C)cc1
III: Cc1cc(Cl)ccc1-c1n[nH]cc1CN(C)CCN
stdin: // ranking: key=pIC50, reverse=True Reply with the labels, ordered as the question asks.
stdout: II, I, III
(II: 6.24, I: 5.62, III: 5.37)

I: CN(CCN)Cc1c[nH]nc1-c1cc(Cl)cc(Cl)c1
II: CN(CCN)Cc1c[nH]nc1-c1ccc(Cl)cc1
III: CNCCN(C)Cc1cnn(CCCC(O)CO)c1-c1ccc(F)cc1 (centres unmarked)
IV: CNCCN(C)Cc1cn(CC(=O)OC)nc1-c1ccc(OC(C)C)cc1
V: CN(CCN)Cc1c[nH]nc1-c1ccc(OCC(F)(F)F)cc1
stdin: Parameters: sort_field (pIC50), sort_dir (desc). Present the labels in the sequence the task asks for.
stdout: V, II, I, III, IV

I: CN(CCN)Cc1c[nH]nc1-c1ccc(F)c(Cl)c1
II: CN(CCN)Cc1nn(C)cc1-c1ccc(C#N)cc1
stdin: Between the entries labeled I and II , whose measured pIC50 is lower? Respond with the label that goes with your answer.
stdout: II

###

Tested on: mono-methyl arginine in RKO cells
Experiment: RKO Methylation Assay, In Cell Western (ICW) for mono-methyl arginine and DNA content
Type: cell-based
Details: Homo sapiens, RKO, 72 h, RKO cells, 72 hours, mono-methyl arginine, percent activation; single experiment or average of multiple experiments; read-out: EC30 (In Cell Western data, Numerical)
Reported EC30 is given for each of the following molecules.
Write the value in nM as a bare number.

Recorded EC30, per entry:
# STRUCTURE AS SMILES, EC30 / nM
measured = [
    ("CNCCN(C)Cc1n[nH]cc1-c1ccc(Oc2cccc(F)c2)cc1", 1060),
    ("CC(C)Cc1cccc(-c2n[nH]cc2CN(C)CCN)c1", 1560),
    ("CNCCN(C)Cc1cnn(C2CC2)c1-c1ccc(F)cc1", 3350),
]

The record that follows has no EC30 shown yet.
stdin: // query EC30 value for entry "CN(CCN)Cc1c[nH]nc1-c1ccc(Oc2cccc(F)c2)cc1"
stdout: 1690

###

Target: human PRMT8 (Homo sapiens, UniProt Q9NR22)
Sequence (Q9NR22 whole entry): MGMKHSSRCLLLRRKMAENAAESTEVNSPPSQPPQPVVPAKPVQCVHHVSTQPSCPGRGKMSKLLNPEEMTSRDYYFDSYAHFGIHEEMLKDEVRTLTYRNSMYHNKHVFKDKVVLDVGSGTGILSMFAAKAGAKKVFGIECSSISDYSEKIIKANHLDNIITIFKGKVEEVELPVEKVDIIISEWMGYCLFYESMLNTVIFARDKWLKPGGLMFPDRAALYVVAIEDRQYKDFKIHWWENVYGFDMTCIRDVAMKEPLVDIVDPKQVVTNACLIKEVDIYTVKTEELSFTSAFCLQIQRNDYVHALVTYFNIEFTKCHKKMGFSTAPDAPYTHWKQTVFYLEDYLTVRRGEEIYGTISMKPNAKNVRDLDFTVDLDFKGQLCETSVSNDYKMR
Test: PRMT8 Biochemical Assay (3H-SAM Flashplate, peptide substrate)
Settings: single experiment or average of multiple experiments
pIC50: −log10 of the molar value.
MEASURED METRIC: pIC50

# COMPOUND, TESTED SYSTEM, pIC50
data = [
    ("Cc1ccc(-c2n[nH]cc2CN(C)CCN)c(F)c1", "human PRMT8 (Homo sapiens, UniProt Q9NR22)", 6.00),
]

a: CC(C)Oc1ccc(-c2c[nH]nc2CN(C)CCN)cc1Cl
b: CN(CCN1CCC1)Cc1c[nH]nc1-c1ccc(C#N)cc1
c: CNCCN(C)Cc1cn[nH]c1-c1cc(F)cc(F)c1
d: CNCCN(C)Cc1c[nH]nc1-c1ccccc1Oc1ccccc1
e: Cc1ccc(Cl)c(-c2n[nH]cc2CN(C)CCN)c1
stdin: Hello, I need these entries ordered by pIC50, highest reading first. Thanks! Reply with the labels, ordered as the question asks.
stdout: a, c, b, e, d

###

Target: human PRMT1 (Homo sapiens, UniProt Q99873)
Construct: GST-tagged PRMT1; made in house; host or cells: High Five insect cells (baculovirus)
Sequence (Q99873 with tags, fused parts or gaps): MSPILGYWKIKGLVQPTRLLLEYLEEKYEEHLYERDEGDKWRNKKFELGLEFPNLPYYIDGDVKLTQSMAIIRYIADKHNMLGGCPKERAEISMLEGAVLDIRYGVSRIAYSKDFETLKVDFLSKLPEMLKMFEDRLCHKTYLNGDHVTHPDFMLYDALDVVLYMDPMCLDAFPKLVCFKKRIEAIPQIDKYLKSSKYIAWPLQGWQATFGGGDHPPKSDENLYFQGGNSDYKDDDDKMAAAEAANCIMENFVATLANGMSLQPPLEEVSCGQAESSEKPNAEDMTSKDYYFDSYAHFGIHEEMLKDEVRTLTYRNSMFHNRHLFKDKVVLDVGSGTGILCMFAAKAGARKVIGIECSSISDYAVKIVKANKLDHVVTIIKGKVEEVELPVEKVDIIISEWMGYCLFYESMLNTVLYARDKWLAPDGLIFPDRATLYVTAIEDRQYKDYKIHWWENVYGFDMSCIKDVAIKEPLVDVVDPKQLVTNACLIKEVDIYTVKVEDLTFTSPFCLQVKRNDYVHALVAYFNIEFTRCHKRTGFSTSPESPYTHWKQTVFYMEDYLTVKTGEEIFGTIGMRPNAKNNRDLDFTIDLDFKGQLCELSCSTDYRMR
Experiment: PRMT1 Biochemical Assay (3H-SAM Flashplate, peptide substrate)
Settings: single experiment or average of multiple experiments
MEASURED METRIC: IC50 (nM)

# STRUCTURE AS SMILES, TESTED SYSTEM, UNITS, IC50
data = [
    ("C=CC(=O)Nc1cccc(-c2[nH]ncc2CN(C)CCNC)c1", "human PRMT1 (Homo sapiens, UniProt Q99873)", "nM", 43.9),
]

A: Cc1cc(C#N)ccc1-c1n[nH]cc1CN(C)CCN
B: CN(CCN)Cc1c[nH]nc1-c1ccc(C(F)(F)F)cc1Cl
C: CCNC(=O)c1cccc(-c2n[nH]cc2CN(C)CCNC)c1
D: CNCCN(C)Cc1c[nH]nc1-c1ccc(OC2CCOCC2)cc1
stdin: Arrange the 4 entries by IC50 so the values rise. Please, when replying, give the labels in the order that was requested.
stdout: D, A, B, C
(D: 10.5 nM, A: 21.6 nM, B: 48.1 nM, C: 338 nM)

###

Molecular target: human PRMT8 (Homo sapiens, UniProt Q9NR22)
Experiment: PRMT8 Biochemical Assay (3H-SAM Flashplate, peptide substrate)
Conditions: single experiment or average of multiple experiments
pIC50: −log10 of the molar value.
MEASURED METRIC: pIC50

Observe how each entry below is paired with its result.
# COMPOUND, REPORTED RESULT
data = [
    ("CNCCN(C)Cc1cnn(C2CC2)c1-c1ccc(F)cc1", 5.86),
    ("CN(CCN)Cc1n[nH]cc1-c1ccc(C2CCOCC2)cc1", 6.78),
    ("CN(CCN)Cc1n[nH]cc1-c1ccc(OC(F)(F)F)cc1", 6.89),
    ("CC[C@@H](C)Oc1ccc(-c2n[nH]cc2CN(C)CCNC)cc1", 7.85),
    ("CN(CCN)Cc1n[nH]cc1-c1ccc(C2CC2)cc1", 6.52),
]

P: CN(CCN)Cc1c[nH]nc1-c1ccc2c(c1)N(C)C(=O)CO2
Q: CCn1cc(CN(C)CCNC)c(-c2ccc(F)cc2)n1
R: CN(CCN)Cc1c[nH]nc1-c1cc(F)cc(F)c1
S: CNCCN(C)Cc1c[nH]nc1-c1ccc(CO)cc1
T: CNCCN(C)Cc1c[nH]nc1-c1ccc(OC2CCC2)cc1
stdin: Rank the items in ascending order with respect to pIC50. Put the labels in the order asked and list them.
stdout: Q, P, R, S, T
(Q: 5.14, P: 5.59, R: 6.10, S: 7.02, T: 7.65)

A: CN(CCN)Cc1c[nH]nc1-c1ccc2c(c1)OCC(=O)N2C
B: COc1ccc(-c2n[nH]cc2CN(C)CCN)cc1
stdin: Lower value of pIC50 belongs to which: A or B ? To answer, give the label that identifies your chosen option.
stdout: A

a: CCNC(=O)c1cccc(-c2n[nH]cc2CN(C)CCN)c1
b: CNCCN(C)Cc1c[nH]nc1-c1ccc(Oc2ncccn2)cc1
c: COc1ccc(-c2n[nH]cc2CN(C)CCN)c(C)c1
d: CNCCN(C)Cc1c[nH]nc1-c1ccc(NC(C)C)cc1
e: CN(CCN)Cc1n[nH]cc1-c1ccc(C#N)cc1
stdin: Sort entries by pIC50 from minimum to maximum value. Put the labels in the order asked and list them.
stdout: a, c, e, b, d

I: NCCN(CCO)Cc1c[nH]nc1-c1ccc(F)cc1
II: CN(CCN)Cc1n[nH]cc1-c1ccc(Oc2ccccc2)cc1
III: CNCCN(C)Cc1n[nH]cc1-c1ccc(OC(C)C)c(Cl)c1
IV: CNCCN(C)Cc1c[nH]nc1-c1ccc(OC2CC(OC)C2)cc1 (stereo not shown)
stdin: Could you please order the items by pIC50, going from the lowest number to the highest? // list labels; follow requested order
stdout: I, II, IV, III
(I: 5.58, II: 6.73, IV: 6.97, III: 7.39)

I: CCNC(=O)c1cccc(-c2n[nH]cc2CN(C)CCNC)c1
II: CNCCN(C)Cc1c[nH]nc1-c1ccc(OC2CC2)c(F)c1
stdin: # returns the entry with the larger pIC50; inputs I and II Could you answer with the label of the item you picked?
stdout: II
(II: 7.63, I: 5.65)

A: CN(CCN)Cc1c[nH]nc1-c1ccc(F)cc1Cl
B: Cc1cc(Cl)ccc1-c1n[nH]cc1CN(C)CCN
stdin: For the two items A and B , which reports the higher pIC50 value? Refer to your chosen item by its label in the answer.
stdout: B
(B: 6.85, A: 5.76)

P: CNCCN(C)Cc1c[nH]nc1-c1cccc(C#N)c1
Q: Cc1cc(F)ccc1-c1n[nH]cc1CN(C)CCN
stdin: # argmax over pIC50 for candidates P and Q Give the label under which the chosen entry appears.
stdout: Q

P: COc1ccccc1-c1n[nH]cc1CN(C)CCN
Q: COc1ccc(-c2n[nH]cc2CN(C)CCN)c(F)c1
stdin: Out of P and Q , name the one with the higher pIC50. Please reply using the label of the selected record.
stdout: Q
(Q: 6.04, P: 5.68)
